molecular target: human PPARα-LBD (Homo sapiens); construct: Human PPARα-LBD [amino acids (AAs) 200–468]; made in house; assay: TR-FRET coactivator recruitment assay, PPARα-LBD; assay type: biochemical; settings: read-out: PPARα CBP % of GW7647 max response
Measured Emax accompanies every entry in the list below.
measurement_name: Emax (%)

INSERT INTO results (compound, measurement_name, value_observed) VALUES
  ('O=C(O)CCCc1cc2cc(Cl)ccc2n1S(=O)(=O)c1ccc2ncsc2c1', 'Emax', 71.7),
  ('CC(C)(Oc1ccc(C(=O)c2ccc(Cl)cc2)cc1)C(=O)O', 'Emax', 80.8),
  ('CC(C)(Oc1ccc(CCNC(=O)c2ccc(Cl)cc2)cc1)C(=O)O [Bezafibrate, bezafibrate]', 'Emax', 79.2),
  ('CSc1ccc(C(=O)/C=C/c2cc(C)c(OC(C)(C)C(=O)O)c(C)c2)cc1', 'Emax', 61.6),
  ('CC[C@@H](Oc1cccc(CN(CCCOc2ccc(OC)cc2)c2nc3ccccc3o2)c1)C(=O)O [Pemafibrate, pemafibrate]', 'Emax', 96.7),
  ('CCO[C@@H](Cc1ccc(OCCn2c(C)ccc2-c2ccc(SC)cc2)cc1)C(=O)O', 'Emax', 80.2),
  ('CCc1ccc(CCOc2ccc(CC3SC(=O)NC3=O)cc2)nc1 (centres unmarked)', 'Emax', 34.9),
  ('CCO[C@H](COc1ccc(C(F)(F)F)cc1)CSc1ccc(OCC(=O)O)c(C)c1', 'Emax', 49.2);

* * *

Biological target: human PPARδ-LBD (Homo sapiens, UniProt Q03181)
Construct: PPARδ-LBD (AAs 170–441); made in house
Sequence (Q03181 170-441): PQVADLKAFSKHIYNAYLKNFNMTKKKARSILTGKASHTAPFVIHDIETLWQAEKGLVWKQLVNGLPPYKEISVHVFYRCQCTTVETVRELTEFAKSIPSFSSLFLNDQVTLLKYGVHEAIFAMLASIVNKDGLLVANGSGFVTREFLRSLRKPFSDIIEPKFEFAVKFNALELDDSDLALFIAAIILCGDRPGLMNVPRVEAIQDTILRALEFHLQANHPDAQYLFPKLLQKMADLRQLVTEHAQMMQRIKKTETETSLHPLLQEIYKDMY
Test: TR-FRET coactivator recruitment assay, PPARδ-LBD
Format: biochemical
Details: TRAP220 peptide recruitment; Buffer A; read-out: PPARδ TRAP220 EC50
pEC50: −log10 of the molar value.
measurement_name: pEC50

INSERT INTO assay_data (molecule, relation_operator, value_observed) VALUES
  ('CCO[C@@H](Cc1ccc(OCCn2c(C)ccc2-c2ccc(SC)cc2)cc1)C(=O)O [Saroglitazar, saroglitazar]', '<', 4.00),
  ('O=C(O)CCCc1cc2cc(Cl)ccc2n1S(=O)(=O)c1ccc2ncsc2c1 [Lanifibranor, lanifibranor]', '=', 5.36),
  ('CC[C@@H](Oc1cccc(CN(CCCOc2ccc(OC)cc2)c2nc3ccccc3o2)c1)C(=O)O [Pemafibrate, pemafibrate]', '=', 5.13),
  ('CC(C)(Oc1ccc(C(=O)c2ccc(Cl)cc2)cc1)C(=O)O [Fenofibric acid, fenofibric acid]', '<', 3.30),
  ('CCO[C@H](COc1ccc(C(F)(F)F)cc1)CSc1ccc(OCC(=O)O)c(C)c1 [Seladelpar, seladelpar]', '=', 7.22);

* * *

Biological target: human PPARγ-LBD (Homo sapiens)
Construct: PPARγ-LBD (AAs 203–477 in isoform 1); made in house
Sequence (P37231 203-477 isoform P37231-2): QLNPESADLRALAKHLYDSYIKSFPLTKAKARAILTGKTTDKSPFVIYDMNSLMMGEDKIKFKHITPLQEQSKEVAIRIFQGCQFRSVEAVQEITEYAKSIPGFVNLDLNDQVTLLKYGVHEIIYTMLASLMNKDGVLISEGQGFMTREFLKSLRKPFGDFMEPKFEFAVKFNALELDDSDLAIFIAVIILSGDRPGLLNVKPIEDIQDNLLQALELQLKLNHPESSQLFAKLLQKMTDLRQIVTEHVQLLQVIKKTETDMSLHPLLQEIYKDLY
Assay: TR-FRET coactivator recruitment assay, PPARγ-LBD
Format: biochemical
Conditions: read-out: PPARγ TRAP220 % of GW1929 max response
measurement_name: Emax (%)

INSERT INTO results (compound, measurement_name, value_observed) VALUES
  ('CC(C)(Oc1ccc(C(=O)c2ccc(Cl)cc2)cc1)C(=O)O [Fenofibric acid, fenofibric acid]', 'Emax', 64.8),
  ('CCO[C@@H](Cc1ccc(OCCn2c(C)ccc2-c2ccc(SC)cc2)cc1)C(=O)O [Saroglitazar, saroglitazar]', 'Emax', 52.4),
  ('CCO[C@H](COc1ccc(C(F)(F)F)cc1)CSc1ccc(OCC(=O)O)c(C)c1 [Seladelpar, seladelpar]', 'Emax', 20.5);

* * *

target: human PPARδ-LBD (Homo sapiens, UniProt Q03181); construct: PPARδ-LBD (AAs 170–441); made in house; test: TR-FRET coactivator recruitment assay, PPARδ-LBD; type: biochemical; conditions: CBP peptide recruitment; Buffer A; read-out: PPARδ CBP EC50
measurement_name: EC50 (µM)

INSERT INTO assay_data (compound, relation_operator, value_observed) VALUES
  ('CCO[C@@H](Cc1ccc(OCCn2c(C)ccc2-c2ccc(SC)cc2)cc1)C(=O)O [Saroglitazar, saroglitazar]', '>', 100),
  ('CCO[C@H](COc1ccc(C(F)(F)F)cc1)CSc1ccc(OCC(=O)O)c(C)c1 [Seladelpar, seladelpar]', '=', 0.0468),
  ('O=C(O)CCCc1cc2cc(Cl)ccc2n1S(=O)(=O)c1ccc2ncsc2c1 [Lanifibranor, lanifibranor]', '=', 3.72),
  ('CC(C)(Oc1ccc(C(=O)c2ccc(Cl)cc2)cc1)C(=O)O [Fenofibric acid, fenofibric acid]', '>', 500),
  ('CC[C@@H](Oc1cccc(CN(CCCOc2ccc(OC)cc2)c2nc3ccccc3o2)c1)C(=O)O [Pemafibrate, pemafibrate]', '=', 8.64);

* * *

Target: human PPARγ-LBD (Homo sapiens, UniProt P37231)
Construct: PPARγ-LBD (AAs 203–477 in isoform 1); made in house
Sequence (P37231 203-477 isoform P37231-2): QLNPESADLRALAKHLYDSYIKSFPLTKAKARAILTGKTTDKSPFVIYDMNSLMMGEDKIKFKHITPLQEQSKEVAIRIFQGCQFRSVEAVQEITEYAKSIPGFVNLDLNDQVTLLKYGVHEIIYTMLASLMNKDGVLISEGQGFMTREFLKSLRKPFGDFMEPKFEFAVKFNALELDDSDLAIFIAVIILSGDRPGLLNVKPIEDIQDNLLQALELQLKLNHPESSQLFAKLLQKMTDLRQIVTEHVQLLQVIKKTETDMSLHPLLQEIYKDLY
Experiment: TR-FRET coactivator recruitment assay, PPARγ-LBD
Type: biochemical
Settings: evaluated based on EC50 values; PGC, PGC1α; SRC, SRC1; TRAP, TRAP220
measurement_name: Approximate potency order in the recruitment of four coactivators, PPARγ

INSERT INTO results (molecule, value_observed) VALUES
  ('CSc1ccc(C(=O)/C=C/c2cc(C)c(OC(C)(C)C(=O)O)c(C)c2)cc1 [Elafibranor, elafibranor]', 'PGC=CBP=TRAP>SRC'),
  ('CC(C)(Oc1ccc(C(=O)c2ccc(Cl)cc2)cc1)C(=O)O [Fenofibric acid, fenofibric acid]', 'PGC=CBP=TRAP>SRC');

* * *

Measured pEC50 accompanies every entry in the list below.
biological target: human PPARα-LBD (Homo sapiens, UniProt Q07869); construct: Human PPARα-LBD [amino acids (AAs) 200–468]; made in house; experiment: TR-FRET coactivator recruitment assay, PPARα-LBD; type: biochemical; conditions: SRC1 peptide recruitment; Buffer A; read-out: PPARα SRC1 EC50
Sequence (Q07869 200-468): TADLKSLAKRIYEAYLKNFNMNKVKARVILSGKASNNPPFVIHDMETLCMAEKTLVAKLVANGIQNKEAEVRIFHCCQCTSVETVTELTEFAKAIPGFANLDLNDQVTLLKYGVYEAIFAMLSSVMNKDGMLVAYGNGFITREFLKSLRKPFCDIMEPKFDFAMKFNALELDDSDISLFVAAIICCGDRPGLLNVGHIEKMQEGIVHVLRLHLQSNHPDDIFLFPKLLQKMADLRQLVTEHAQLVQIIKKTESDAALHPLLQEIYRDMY
pEC50: −log10 of the molar value.
measurement_name: pEC50

INSERT INTO results (smiles_code, measurement_name, value_observed) VALUES
  ('CSc1ccc(C(=O)/C=C/c2cc(C)c(OC(C)(C)C(=O)O)c(C)c2)cc1', 'pEC50', 5.30),
  ('O=C(O)CCCc1cc2cc(Cl)ccc2n1S(=O)(=O)c1ccc2ncsc2c1', 'pEC50', 4.98),
  ('CCO[C@H](COc1ccc(C(F)(F)F)cc1)CSc1ccc(OCC(=O)O)c(C)c1', 'pEC50', 5.72),
  ('CC(C)(Oc1ccc(C(=O)c2ccc(Cl)cc2)cc1)C(=O)O', 'pEC50', 4.95),
  ('CCO[C@@H](Cc1ccc(OCCn2c(C)ccc2-c2ccc(SC)cc2)cc1)C(=O)O', 'pEC50', 6.09);

* * *

Measured EC50 accompanies every entry in the list below.
target: human PPARα-LBD (Homo sapiens); construct: Human PPARα-LBD [amino acids (AAs) 200–468]; made in house; assay: TR-FRET coactivator recruitment assay, PPARα-LBD; format: biochemical; settings: TRAP220 peptide recruitment; Buffer A; read-out: PPARα TRAP220 EC50
measurement_name: EC50 (µM)

INSERT INTO measurements (smiles_code, value_observed) VALUES
  ('CCO[C@H](COc1ccc(C(F)(F)F)cc1)CSc1ccc(OCC(=O)O)c(C)c1', 1.84),
  ('CSc1ccc(C(=O)/C=C/c2cc(C)c(OC(C)(C)C(=O)O)c(C)c2)cc1', 4.28),
  ('CC(C)(Oc1ccc(C(=O)c2ccc(Cl)cc2)cc1)C(=O)O', 7.33),
  ('O=C(O)CCCc1cc2cc(Cl)ccc2n1S(=O)(=O)c1ccc2ncsc2c1', 7.31),
  ('CCO[C@@H](Cc1ccc(OCCn2c(C)ccc2-c2ccc(SC)cc2)cc1)C(=O)O', 0.674);
